Where these numbers come from: patent US20170240566A1

minimal effective concentration reference
- System: recombinant guanylate cyclase reporter cell line
- assay_name: Effect on a recombinant guanylate cyclase reporter cell line
- Format: cell-based
- measurement_conditions: minimum effective concentration; in some cases means of individual determinations; read-out: MEC
- Method: B-2. Effect on a Recombinant Guanylate Cyclase Reporter Cell Line The cellular activity of the compounds of the invention is determined using a recombinant guanylate cyclase reporter cell line, as described in F. Wunder et al., Anal. Biochem. 339, 104-112 (2005). Representative values (MEC=minimum effective concentration) for the compounds of the invention are shown in the table below (Table 1; in some cases as means of individual determinations): […]

Answered cases to consult:
compound | target_entity | quantity_kind | measurement
Cc1nc2c(cc1F)c(-c1nc(NCC(N)(CF)CF)c3c(n1)NC(=O)C3(C)C(F)(F)F)nn2Cc1ncccc1F (single isomer, unassigned; ent-4) [Example 17] | recombinant guanylate cyclase reporter cell line | minimal effective concentration | 0.65 µM
Cc1nc2c(cc1F)c(-c1nc(NCC(N)(CF)CF)c3c(n1)NC(=O)C3(C)C(F)(F)F)nn2Cc1ccccc1F (single isomer, unassigned; ent-4) [Example 11] | recombinant guanylate cyclase reporter cell line | minimal effective concentration | 0.1 µM
Cc1nc2c(cc1F)c(-c1nc(NCC(N)(CF)CF)c3c(n1)NC(=O)C3(C)C(F)(F)F)nn2Cc1ccccc1F (single isomer, unassigned; ent-4) [Example 10] | recombinant guanylate cyclase reporter cell line | minimal effective concentration | 0.2 µM
Cc1nc2c(cc1F)c(-c1nc(NCC(N)(CF)CF)c3c(n1)NC(=O)C3(C)C)nn2Cc1cccc(F)c1F | recombinant guanylate cyclase reporter cell line | minimal effective concentration | 0.3 µM
Cc1nc2c(cc1F)c(-c1nc(NCC(N)(CF)CF)c3c(n1)NC(=O)C3(C)C(F)(F)F)nn2Cc1ncccc1F (racemic) [Example 15] | recombinant guanylate cyclase reporter cell line | minimal effective concentration | 0.1 µM

Let us examine a further case.
# input Field request: minimal effective concentration | item: CC1(C(F)(F)F)C(=O)Nc2nc(-c3nn(Cc4ncccc4F)c4ncc(F)cc34)nc(NCC(N)(CF)CF)c21 (single isomer, unassigned; ent-4) [Example 20]
# output 0.65 µM
